Where these numbers come from: BindingDB's records for patent US10245267

For each of the compounds below, state its pIC50.
# MEASURED_ON: Serine/threonine-protein kinase B-raf [V600E] (Homo sapiens, UniProt P15056, V600E)
# Sequence (P15056 2-766 V600E limits assumed): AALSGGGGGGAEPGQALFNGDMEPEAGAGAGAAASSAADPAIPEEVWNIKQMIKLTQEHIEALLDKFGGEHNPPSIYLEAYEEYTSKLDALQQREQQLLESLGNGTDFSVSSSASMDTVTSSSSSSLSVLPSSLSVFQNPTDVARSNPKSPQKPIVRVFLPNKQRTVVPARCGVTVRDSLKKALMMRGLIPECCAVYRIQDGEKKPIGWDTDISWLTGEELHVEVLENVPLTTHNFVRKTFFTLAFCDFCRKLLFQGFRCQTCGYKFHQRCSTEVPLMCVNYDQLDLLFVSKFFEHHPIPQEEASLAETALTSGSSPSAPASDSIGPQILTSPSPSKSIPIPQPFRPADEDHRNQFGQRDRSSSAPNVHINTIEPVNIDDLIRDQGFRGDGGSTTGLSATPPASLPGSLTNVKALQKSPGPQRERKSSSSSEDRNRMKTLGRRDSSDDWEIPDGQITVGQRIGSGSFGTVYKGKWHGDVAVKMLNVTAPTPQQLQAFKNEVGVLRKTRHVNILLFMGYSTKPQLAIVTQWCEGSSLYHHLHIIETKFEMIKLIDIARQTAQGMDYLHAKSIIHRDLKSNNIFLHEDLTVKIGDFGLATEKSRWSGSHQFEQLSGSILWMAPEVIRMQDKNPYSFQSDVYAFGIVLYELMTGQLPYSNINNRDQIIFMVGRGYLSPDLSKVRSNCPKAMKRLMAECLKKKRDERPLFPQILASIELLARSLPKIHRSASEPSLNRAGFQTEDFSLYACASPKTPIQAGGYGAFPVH
# ASSAY_PROTOCOL: In Vitro Raf Activity
Hey, just a heads up that pIC50 is the negative log base 10 of the concentration in molar.

Lookup: Any idea what pIC50 was measured for Cc1ncc(NC(=O)c2ccnc(C(F)(F)F)c2)cc1-c1cnc(C(C)(C)C#N)c(N2CCOCC2)c1 [US10245267, Example 326] ?
Found: 8.43

Lookup: What value of measured pIC50 is listed for CCOc1nnc(-c2cc(NC(=O)c3ccc(CN(C)CC)c(C(F)(F)F)c3)ccc2C)cc1N1CCOCC1 [US10245267, Example 576] ?
Found: 8.46

Lookup: Quick check: pIC50 of Cc1ncc(NC(=O)c2ccnc(C(C)(C)C#N)c2)cc1-c1cc(N2CCOCC2)ncn1 [US10245267, Example 2] ?
Found: 8.32

Lookup: Recorded pIC50 for Cc1ncc(NC(=O)c2cccc(C(F)F)c2)cc1-c1cc(N2CCOCC2)c2nccn2n1 [US10245267, Example 880] , please?
Found: 8.49

---

Hi there, I'd appreciate the recorded pIC50 for every entry that follows.
# MEASURED_ON: Serine/threonine-protein kinase B-raf [V600E] (Homo sapiens, UniProt P15056, V600E)
# ASSAY_PROTOCOL: In Vitro Raf Activity
pIC50 is a log-scale quantity: -log10 of the concentration expressed in molar.

Lookup: Notebook entry, Serine/threonine-protein kinase B-raf [V600E] (Homo sapiens, UniProt P15056, V600E) assay: pIC50 of Cc1ncc(NC(=O)c2ccnc(C(C)(C)C#N)c2)cc1-c1cc(N2CCOCC2)c2nccn2n1 = ?
Found: 7.49

Lookup: Notebook: pull reported pIC50 for Serine/threonine-protein kinase B-raf [V600E] (Homo sapiens, UniProt P15056, V600E), entry Cc1ncc(NC(=O)c2ccc(C#N)c(C(F)(F)F)c2)cc1-c1cc(N2CCOCC2)c2nccn2n1
Found: 8.19

Lookup: Hi! What's the reported pIC50 for Cc1ncc(NC(=O)c2ccnc(C(F)(F)F)c2)cc1-c1cnc(CS(C)(=O)=O)c(N2CCOCC2)c1 on Serine/threonine-protein kinase B-raf [V600E] (Homo sapiens, UniProt P15056, V600E)?
Found: 8.41

Lookup: Request: pIC50, test system Serine/threonine-protein kinase B-raf [V600E] (Homo sapiens, UniProt P15056, V600E), entry Cc1ncc(NC(=O)c2ccnc(C(F)(F)F)c2)cc1-c1cnc(OC2CNC2)c(N2CCOCC2)c1
Found: 6.52
